The measurements presented in this section are drawn from patent US20080090805A1.

# TESTED ON: native CB1 receptors (Rattus norvegicus, UniProt P20272)
# Sequence (P20272 whole entry): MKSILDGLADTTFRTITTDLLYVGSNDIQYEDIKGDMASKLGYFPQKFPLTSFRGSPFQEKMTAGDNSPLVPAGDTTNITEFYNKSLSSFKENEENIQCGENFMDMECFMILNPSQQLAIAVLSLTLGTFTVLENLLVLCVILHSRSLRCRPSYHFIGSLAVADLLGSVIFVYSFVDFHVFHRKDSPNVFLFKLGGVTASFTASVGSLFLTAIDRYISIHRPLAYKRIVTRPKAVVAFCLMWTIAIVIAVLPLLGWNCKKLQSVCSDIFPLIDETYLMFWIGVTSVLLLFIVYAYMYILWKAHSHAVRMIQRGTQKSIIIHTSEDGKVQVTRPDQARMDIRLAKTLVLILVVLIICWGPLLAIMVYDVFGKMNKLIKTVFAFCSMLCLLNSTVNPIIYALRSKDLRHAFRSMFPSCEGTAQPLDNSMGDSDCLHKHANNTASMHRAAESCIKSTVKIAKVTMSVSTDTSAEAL
# ASSAY OVERVIEW: CB1 receptor rat binding assay ([3H]SR141716A, rat brain membranes)
# ASSAY SETUP: rat brain membranes, [3H]SR141716A; read-out: Binding rat pKi (converted)
Assign Ki to each entry below.
The figure you give is taken to be in nM; do not add the unit.

Record request: Ki value, item O=C(NCc1ccc(Cl)cc1Cl)c1ccc2c(c1)N=C(c1ccccc1)c1ccccc1S2 [drawing 1204] 12.6

Record request: Ki value, item O=C(NCCc1ccncc1)c1ccc2c(c1)N=C(c1ccc(Cl)s1)c1ccccc1S2 [drawing 1540] 12.6

Record request: Ki value, item O=C(NCCc1cccnc1)c1ccc2c(c1)N=C(c1cccc(Cl)c1)c1ccccc1S2 [drawing 1293] 20

Record request: Ki value, item CCCC1=Nc2cc(C(=O)NC(C)C34C[C@H]5C[C@@H](C3)C[C@@H](C4)C5)ccc2Sc2ccccc21 (some centres unmarked) 25.1

Record request: Ki value, item O=C(NCCc1ccncc1)c1ccc2c(c1)N=C(c1ccc(Cl)c(Cl)c1)c1ccccc1S2 [drawing 1497] 10
